This section presents molecules with their documented z-score of subpopulation abundance values.
test system: Saccharomyces cerevisiae BY4741 SeMeCo community; assay: z-score of subpopulation abundance vs DMSO median, subpopulation auxotrophic for L; higher = larger share of this subpopulation than in DMSO controls; conditions: 10 µM; 24 h; SM minimal medium; subpopulation (auxotrophy): L
Structures can show the parent of a compound that is named as a salt.
experimental_readout: z-score of subpopulation abundance

INSERT INTO assay_data (molecule, test_value) VALUES
  ('Cc1cc(C)nc(NS(=O)(=O)c2ccc(N)cc2)n1 [Sulfamethazine Sodium Salt]', 0.3),
  ('Cc1cc(NS(=O)(=O)c2ccc(N)cc2)no1 [Sulfamethoxazole]', 0.5),
  ('O=C1NC(=O)C(c2ccccc2)(c2ccccc2)N1', -0.25),
  ('CCC(C)n1ncn(-c2ccc(N3CCN(c4ccc(OCC5COC(Cn6cncn6)(c6ccc(Cl)cc6Cl)O5)cc4)CC3)cc2)c1=O (stereo not given)', 0.48),
  ('COc1cccc(-c2c(C)n(Cc3c(F)cccc3C(F)(F)F)c(=O)n(C[C@H](NCCCC(=O)O)c3ccccc3)c2=O)c1F [Elagolix Sodium]', -0.55),
  ('CC(C)(C)C1CCC(CC2=C(O)c3ccccc3C(=O)C2=O)CC1 (stereo not given)', 0.5),
  ('C[C@@H]1C/C=C/C=C/C=C/C=C/[C@H](O[C@@H]2O[C@H](C)[C@@H](O)[C@H](N)[C@@H]2O)C[C@@H]2O[C@](O)(C[C@@H](O)C[C@H]3O[C@@H]3/C=C/C(=O)O1)C[C@H](O)[C@H]2C(=O)O', 1.74),
  ('CC(C)[N+](C)(CCOC(=O)C1c2ccccc2Oc2ccccc21)C(C)C [Propantheline bromide]', -0.57),
  ('CCC1(C)CC(=O)NC1=O (stereo not given) [Ethosuximide]', 0.6),
  ('CN1CCN(C2=Nc3ccccc3Oc3ccc(Cl)cc32)CC1 [Loxapine Succinate]', 1.71),
  ('O=C(C1CCCCC1)N1CC(=O)N2CCc3ccccc3C2C1 (stereo not given)', 0.31),
  ('CNCCC(Oc1ccc(C(F)(F)F)cc1)c1ccccc1 (stereo not given) [Fluoxetine HCl]', -0.14),
  ('CCCCC(F)(F)[C@@]1(O)CC[C@H]2[C@@H](CC(=O)[C@@H]2CCCCCCC(=O)O)O1', -1.05),
  ('C[C@H](NCc1ccc(OCc2cccc(F)c2)cc1)C(N)=O [Safinamide]', -0.58),
  ('CC(C)c1c(C(=O)Nc2ccccc2)c(-c2ccccc2)c(-c2ccc(F)cc2)n1CC[C@@H](O)C[C@@H](O)CC(=O)O', 1.5),
  ('Cc1ncc([N+](=O)[O-])n1CCO', 0.11),
  ('CCN(CC)CCNC(=O)c1cc(S(C)(=O)=O)ccc1OC [Tiapride Hydrochloride]', 0.96),
  ('O=[N+]([O-])c1ccc(O)c2ncccc12', -0.84),
  ('Cc1ccc(Sc2ccccc2N2CCNCC2)c(C)c1', -0.27),
  ('Cc1cnc(NC(=O)C2=C(O)c3ccccc3S(=O)(=O)N2C)s1', -0.61),
  ('C[C@@H](O)[C@H]1C(=O)N2C(C(=O)O)=C(S[C@@H]3CN[C@H](C(=O)N(C)C)C3)[C@H](C)[C@H]12 [Meropenem Trihydrate]', 0.38),
  ('CN1C2CCCC1CC(NC(=O)c1nn(C)c3ccccc13)C2 (stereo not given) [Granisetron HCl]', 0.65),
  ('COc1ccccc1OCC(O)CN1CCN(CC(=O)Nc2c(C)cccc2C)CC1 (stereo not given) [Ranolazine 2HCl]', 0.24),
  ('CCCSc1ccc2[nH]c(NC(=O)OC)nc2c1', -0.04),
  ('COc1ccccc1N1CCN(CCCNc2cc(=O)n(C)c(=O)n2C)CC1 [Urapidil HCl]', -1),
  ('CCN(CC)CCOCCOC(=O)C1(c2ccccc2)CCCC1 [Pentoxyverine Citrate]', -0.03),
  ('O=C(Nc1c(Cl)cncc1Cl)c1ccc(OC(F)F)c(OCC2CC2)c1', -0.2),
  ('CC1(C)S[C@@H]2[C@H](NC(=O)COc3ccccc3)C(=O)N2[C@H]1C(=O)O [Penicillin V potassium salt]', -1.58),
  ('COCCOC(=O)C1=C(C)NC(C)=C(C(=O)OC(C)C)C1c1cccc([N+](=O)[O-])c1 (stereo not given)', 0.55),
  ('Cc1ncc([N+](=O)[O-])n1C', -1.34),
  ('Nc1nc(=O)[nH]cc1F', -1.32),
  ('NC(=O)c1ncn([C@@H]2O[C@H](CO)[C@@H](O)[C@H]2O)n1', -0.43),
  ('CCCc1cc(C(N)=S)ccn1 [Protionamide]', 0.04),
  ('CC(=O)O[C@H]1C[C@@]2(C)[C@@H](C[C@@H](O)[C@H]3[C@@]4(C)CC[C@@H](O)[C@@H](C)[C@@H]4CC[C@@]32C)/C1=C(\CCC=C(C)C)C(=O)O [Fusidate Sodium]', -0.11),
  ('CC(C)Cc1ccc(C(C)C(=O)O)cc1 (stereo not given)', -0.17);

====

Listing of entries alongside the reported z-score of subpopulation abundance.
tested on: Saccharomyces cerevisiae BY4741 SeMeCo community; assay: z-score of subpopulation abundance vs DMSO median, subpopulation auxotrophic for HLU; higher = larger share of this subpopulation than in DMSO controls; details: 10 µM; 24 h; SM minimal medium; subpopulation (auxotrophy): HLU
Counter-ions that a name gives are not always drawn.
experimental_readout: z-score of subpopulation abundance

INSERT INTO assay_data (compound, test_value) VALUES
  ('CC[C@H]1OC(=O)[C@H](C)[C@@H](O[C@H]2C[C@@](C)(OC)[C@@H](O)[C@H](C)O2)[C@H](C)[C@@H](O[C@@H]2O[C@H](C)C[C@H](N(C)C)[C@H]2O)[C@](C)(O)C[C@@H](C)[C@@H]2N[C@@H](COCCOC)O[C@H]([C@H]2C)[C@]1(C)O [Dirithromycin]', -0.71),
  ('Clc1ccc(COC(Cn2ccnc2)c2ccc(Cl)cc2Cl)c(Cl)c1 (stereo not drawn) [Miconazole Nitrate]', 11.6),
  ('COc1cc(Cc2cnc(N)nc2N)cc(OC)c1OC [Trimethoprim]', 0.25),
  ('CN(C)CCn1nnnc1SCC1=C(C(=O)O)N2C(=O)[C@@H](NC(=O)Cc3csc(N)n3)[C@H]2SC1 [Cefotiam hydrochloride]', 1.21),
  ('CC(C(O)c1ccc(O)cc1)N1CCC(Cc2ccccc2)CC1 (stereo not drawn) [Ifenprodil Tartrate]', -1.12),
  ('CCCOc1ccc2[nH]c(NC(=O)OC)nc2c1 [Oxibendazole]', 0.8),
  ('CCCCCOc1ccc(-c2cc(-c3ccc(C(=O)N[C@H]4C[C@@H](O)[C@@H](O)NC(=O)[C@@H]5[C@@H](O)[C@@H](C)CN5C(=O)[C@H]([C@H](O)CC(N)=O)NC(=O)[C@H]([C@H](O)[C@@H](O)c5ccc(O)c(OS(=O)(=O)O)c5)NC(=O)[C@@H]5C[C@@H](O)CN5C(=O)[C@H]([C@@H](C)O)NC4=O)cc3)no2)cc1 [Micafungin Sodium]', 12),
  ('CC(C)c1nc(N(C)S(C)(=O)=O)nc(-c2ccc(F)cc2)c1/C=C/[C@@H](O)C[C@@H](O)CC(=O)O [Rosuvastatin]', 1.68),
  ('CCN(CC)C(=O)C1(c2ccccc2)CC1CN (stereo not drawn) [Milnacipran HCl]', -0.08),
  ('COc1ccc2cc3[n+](cc2c1OC)CCc1cc2c(cc1-3)OCO2 [Berberine Sulfate]', 0.06),
  ('CC1=C(C(=O)O)N2C(=O)[C@@H](NC(=O)[C@H](N)c3ccc(O)cc3)[C@H]2SC1 [Cefadroxil hydrate]', -0.42),
  ('C#C[C@]1(O)CC[C@H]2[C@@H]3CCc4cc(OC)ccc4[C@H]3CC[C@@]21C [Mestranol]', -0.61),
  ('CC(=O)[C@H]1CC[C@H]2[C@@H]3CCC4=CC(=O)CC[C@]4(C)[C@H]3CC[C@]12C [Progesterone]', -1.13);

====

test system: Saccharomyces cerevisiae BY4741 SeMeCo community; assay: z-score of subpopulation abundance vs DMSO median, subpopulation auxotrophic for U; higher = larger share of this subpopulation than in DMSO controls; conditions: 10 µM; 24 h; SM minimal medium; subpopulation (auxotrophy): U
Counter-ions that a name gives are not always drawn.
Classification field: 1 = z-score of subpopulation abundance at or over -0.1; -1 = z-score of subpopulation abundance under -0.1.

INSERT INTO assay_data (compound, assayed_system, cat) VALUES
  ('CN[C@@H]1[C@H](O[C@H]2[C@H](O[C@H]3[C@H](O)[C@@H](O)[C@H](N=C(N)N)[C@@H](O)[C@@H]3N=C(N)N)O[C@@H](C)[C@]2(O)C=O)O[C@@H](CO)[C@H](O)[C@H]1O [Streptomycin sulfate]', 'Saccharomyces cerevisiae BY4741 SeMeCo community', 1),
  ('CCCc1nn(C)c2c(=O)[nH]c(-c3cc(S(=O)(=O)N4CCN(C)CC4)ccc3OCC)nc12 [Sildenafil]', 'Saccharomyces cerevisiae BY4741 SeMeCo community', -1),
  ('C[C@@H](c1ncncc1F)[C@](O)(Cn1cncn1)c1ccc(F)cc1F', 'Saccharomyces cerevisiae BY4741 SeMeCo community', -1),
  ('CCC(C)(Oc1ccc(C2(c3ccc(OC(C)(CC)C(=O)O)cc3)CCCCC2)cc1)C(=O)O (centres undefined) [Clinofibrate]', 'Saccharomyces cerevisiae BY4741 SeMeCo community', 1),
  ('C[C@@H](O)[C@H]1C(=O)N2C(C(=O)O)=C(SCCNC=N)C[C@H]12', 'Saccharomyces cerevisiae BY4741 SeMeCo community', 1),
  ('C#C[C@]1(O)CC[C@H]2[C@@H]3CCc4cc(OC5CCCC5)ccc4[C@H]3CC[C@@]21C', 'Saccharomyces cerevisiae BY4741 SeMeCo community', -1),
  ('Cc1ccccc1OCC(O)CO (centres undefined)', 'Saccharomyces cerevisiae BY4741 SeMeCo community', -1),
  ('C[C@H]1COc2c(C3(N)CC3)c(F)cc3c(=O)c(C(=O)O)cn1c23 [Pazufloxacin mesylate]', 'Saccharomyces cerevisiae BY4741 SeMeCo community', 1),
  ('Cc1nc2n(c(=O)c1CCN1CCC(c3noc4cc(F)ccc34)CC1)CCCC2', 'Saccharomyces cerevisiae BY4741 SeMeCo community', 1),
  ('O=C1c2cccc3c2[C@H](CCC3)CN1[C@@H]1CN2CCC1CC2', 'Saccharomyces cerevisiae BY4741 SeMeCo community', -1),
  ('Cc1cc(O)cc(C)c1Cl', 'Saccharomyces cerevisiae BY4741 SeMeCo community', 1),
  ('O=C(O)Cc1ccccc1Nc1c(Cl)cccc1Cl [Diclofenac Sodium]', 'Saccharomyces cerevisiae BY4741 SeMeCo community', -1),
  ('CO[C@H]1C[C@@H]2CC[C@@H](C)[C@@](O)(O2)C(=O)C(=O)N2CCCC[C@H]2C(=O)O[C@H]([C@H](C)C[C@@H]2CC[C@@H](OP(C)(C)=O)[C@H](OC)C2)CC(=O)[C@H](C)/C=C(\C)[C@@H](O)[C@@H](OC)C(=O)[C@H](C)C[C@H](C)/C=C/C=C/C=C/1C', 'Saccharomyces cerevisiae BY4741 SeMeCo community', 1),
  ('CCC[C@@H]1C[C@@H](C(=O)N[C@@H]([C@H]2O[C@H](SC)[C@H](OP(=O)(O)O)[C@@H](O)[C@H]2O)[C@H](C)Cl)N(C)C1 [Clindamycin Phosphate]', 'Saccharomyces cerevisiae BY4741 SeMeCo community', 1);
